Numbers sourced from ChEMBL document CHEMBL1154695.

- measurement-description: Stability in rat plasma assessed as compound epimerization at 10 uM
- Format: ADME, cell-free
test-readout: half-life at 10 µM

[ask] So what's the measured half-life at 10 µM for this one? "[2H][C@@](CCC)(NC(=O)[C@@H]1[C@H]2CCC[C@H]2CN1C(=O)[C@@H](NC(=O)[C@@H](NC(=O)c1cnccn1)C1CCCCC1)C(C)(C)C)C(=O)C(=O)NC1CC1"
[reply] > 4 h
